# Assay system: D(2) dopamine receptor (Homo sapiens, UniProt P14416)
# Sequence (P14416 whole entry): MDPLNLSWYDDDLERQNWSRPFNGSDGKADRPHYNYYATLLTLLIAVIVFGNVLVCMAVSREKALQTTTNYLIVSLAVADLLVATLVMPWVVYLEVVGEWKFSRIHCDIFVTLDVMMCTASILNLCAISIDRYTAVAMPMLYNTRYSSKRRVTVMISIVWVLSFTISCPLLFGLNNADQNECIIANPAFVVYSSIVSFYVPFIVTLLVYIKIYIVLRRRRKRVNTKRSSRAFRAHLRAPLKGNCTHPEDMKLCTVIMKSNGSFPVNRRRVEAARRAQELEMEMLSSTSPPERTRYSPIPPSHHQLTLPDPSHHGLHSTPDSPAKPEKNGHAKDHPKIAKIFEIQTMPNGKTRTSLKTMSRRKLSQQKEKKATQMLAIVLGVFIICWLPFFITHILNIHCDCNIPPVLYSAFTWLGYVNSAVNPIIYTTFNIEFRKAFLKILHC
# Experimental details: Displacement of [3H]7-OH-DPAT from human D2S receptor high affinity site expressed in HEK293 cells
# Type: cell-based
pKi: −log10 of the molar value.
Classify as follows. Reported pKi greater than or equal to 6: yes (1). Reported pKi below: no (0).

| Smiles repr | Group |
| --- | --- |
| CCCN1CCN(c2cccc(OC)c2)CC1 | yes (1) |
| CCCN1CCN(c2cccc(C#N)c2)CC1 | yes (1) |
| CCCN1CCN(c2ccccc2OC)CC1 | yes (1) |
| CCCN1CCC(c2cccc(C(F)(F)F)c2)CC1 | yes (1) |

Task: Item CCCN1CCC(c2ccc(OC)cc2)CC1 with pKi of 6 or above?
Output: no (0)

Task: Item CCCN1CCC(c2cccc(S(=O)(=O)C3CCCC3)c2)CC1 with pKi of 6 or above?
Output: no (0)

Task: Item CCCN1CCN(c2ccccc2)CC1 with pKi of 6 or above?
Output: yes (1)

----------
# Assay system: Amine oxidase [flavin-containing] A (Rattus norvegicus)
# Sequence (P21396 whole entry): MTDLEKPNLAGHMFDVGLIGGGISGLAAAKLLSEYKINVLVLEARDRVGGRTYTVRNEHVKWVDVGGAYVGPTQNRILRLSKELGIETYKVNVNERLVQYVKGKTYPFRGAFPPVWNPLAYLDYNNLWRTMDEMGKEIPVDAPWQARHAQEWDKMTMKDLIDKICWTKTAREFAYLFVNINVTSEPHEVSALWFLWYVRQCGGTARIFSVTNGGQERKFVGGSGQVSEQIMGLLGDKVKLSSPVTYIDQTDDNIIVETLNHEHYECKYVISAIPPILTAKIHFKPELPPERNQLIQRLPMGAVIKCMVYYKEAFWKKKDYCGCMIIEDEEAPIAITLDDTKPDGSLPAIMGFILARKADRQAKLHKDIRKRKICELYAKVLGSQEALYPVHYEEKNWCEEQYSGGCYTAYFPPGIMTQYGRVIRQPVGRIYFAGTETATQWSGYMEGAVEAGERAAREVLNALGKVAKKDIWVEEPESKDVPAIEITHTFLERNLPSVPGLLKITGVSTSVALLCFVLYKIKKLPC
# Experimental details: Displacement of [3H]Ro 41-1049 from rat MAO-A receptor expressed in HEK293 cells
# Assay type: cell-based
# Conditions: read-out: Ki
pKi: −log10 of the molar value.
What pKi was measured for each of the following?

In the examples that follow, each entry is paired with its recorded pKi.
| Smiles repr | Experimental result |
| --- | --- |
| CCCN1CCN(c2cccc(O)c2)CC1 | < 3.23 |
| CCCN1CCN(c2ccccc2OC)CC1 | < 3.23 |
| CCCN1CCN(c2cccc(C#N)c2)CC1 | < 3.23 |
| CCCN1CCN(c2ccccc2S(C)(=O)=O)CC1 | < 3.23 |

Okay, next one:
Task: What value of measured pKi is listed for CCCN1CCC(c2cccc(S(=O)(=O)C3CCCC3)c2)CC1 ?
Output: < 3.23

----------
# Assay system: D(2) dopamine receptor (Homo sapiens, UniProt P14416)
# Experimental details: Displacement of [3H]7-OH-DPAT from human D2S receptor high affinity site expressed in HEK293 cells
Experimental readout: Ki

| Smiles repr | Ki |
| --- | --- |
| CCCN1CCC(c2cccc(OC)c2)CC1 | 1500 nM |
| CCCN1CCC(c2ccc(Cl)cc2)CC1 | 900 nM |
| CCCN1CCN(c2ccccc2S(C)(=O)=O)CC1 | 580 nM |

Batch of 3 compounds: report Ki for each.
1. CCCN1CCC(c2ccccc2OC)CC1
2. CCCN1CCC(c2ccccc2)CC1
3. CCCN1CCN(c2ccc(OC)cc2)CC1

Output:
1. 12 nM
2. 170 nM
3. 6400 nM

Origin of the recorded values: ChEMBL document CHEMBL2331278
